Reference source for all entries: paper PMC8535469

Biological target: hNudt16 (Homo sapiens, UniProt Q96DE0)
Sequence (Q96DE0 whole entry): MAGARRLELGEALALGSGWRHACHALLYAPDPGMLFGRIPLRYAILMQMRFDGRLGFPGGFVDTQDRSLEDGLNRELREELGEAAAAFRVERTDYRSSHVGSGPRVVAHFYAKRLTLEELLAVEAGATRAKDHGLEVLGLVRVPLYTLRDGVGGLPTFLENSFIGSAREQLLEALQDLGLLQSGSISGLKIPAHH
Assay: Enzymatic hydrolysis catalyzed by hNudt16, products quantified by HPLC
Format: biochemical
Parameters: 4xHis (four added histidines); made in house
Details: 20 µM substrate, 37 °C, pH 7.9, 6 mM MgCl2; nd = hydrolysis products not detected
Description: Enzymatic hydrolysis catalyzed by hNudt16 was performed at 37 °C in 40 mM Tris buffer (pH 7.9) containing 100 mM NaCl, 6 mM MgCl2, and 2 mM DTT. The concentration of the investigated dinucleotides and mononucleotides was 20 µM in the reaction mixture. The hydrolytic susceptibility of the compounds was studied using HPLC. […] Changes in the absorbance at 260 nm were continuously monitored during the analysis. […]
PROPERTY: Hydrolysis Rate, v/[E]0 (hydrolyzed substrate per minute per [enzyme] µM)

MOLECULE	ASSAY RESULT
NC(=O)C1=CN([C@@H]2O[C@H](COP(=O)(O)OP(=O)(O)OC[C@H]3O[C@@H](n4cnc5c(N)ncnc54)[C@H](O)[C@@H]3O)[C@@H](O)[C@H]2O)C=CC1 [NADH, Reduced NAD+]	18.7 ± 1.5 µM/min/[E]0
Nc1ncnc2c1ncn2[C@@H]1O[C@H](COP(=O)(O)OP(=O)(O)OC[C@H]2O[C@@H](n3cnc4c(N)ncnc43)[C@H](O)[C@@H]2O)[C@@H](O)[C@H]1O [AppA]	40.8 ± 2.9 µM/min/[E]0
Nc1nc2c(ncn2[C@@H]2O[C@H](COP(=O)(O)OP(=O)(O)OC[C@H]3O[C@@H](n4cnc5c(=O)[nH]c(N)nc54)[C@H](O)[C@@H]3O)[C@@H](O)[C@H]2O)c(=O)[nH]1 [GppG]	5454.5 ± 436.3 µM/min/[E]0
C[n+]1cn([C@@H]2O[C@H](COP(=O)([O-])OP(=O)(O)OC[C@H]3O[C@@H](n4cnc5c(=O)[nH]c(N)nc54)[C@H](O)[C@@H]3O)[C@@H](O)[C@H]2O)c2nc(N)[nH]c(=O)c21 [m^7GppG]	722.6 ± 68.6 µM/min/[E]0
CC(C)(COP(=O)(O)OP(=O)(O)OC[C@H]1O[C@@H](n2cnc3c(N)ncnc32)[C@H](O)[C@@H]1O)[C@@H](O)C(=O)NCCC(=O)NCCS [dpCoA, Dephospho-coenzyme A]	18.0 ± 1.3 µM/min/[E]0
NC(=O)c1ccc[n+]([C@@H]2O[C@H](COP(=O)([O-])OP(=O)(O)OC[C@H]3O[C@@H](n4cnc5c(N)ncnc54)[C@H](O)[C@@H]3O)[C@@H](O)[C@H]2O)c1 [NAD, Nicotinamide adenine dinucleotide]	3.4 ± 0.4 µM/min/[E]0

----------
Target: hNudt16E76Q (Homo sapiens, UniProt Q96DE0, E76Q)
Construct: 4xHis (four added histidines); made in house; host or cells: E. coli Rosetta 2 (DE3), pET16b
Sequence (Q96DE0 whole entry E76Q): as the sequence (Q96DE0 whole entry) above, with E76Q counted along it
Assay: Microscale thermophoresis (MST) binding, two independent binding sites model
Conditions: calculated as −RTlnKd from MST Kd1

COMPOUND	UNITS TEXT	ΔGdiss1 (for Kd1)
C[n+]1cn([C@@H]2O[C@H](COP(=O)([O-])OP(=O)(O)OC[C@H]3O[C@@H](n4cnc5c(=O)[nH]c(N)nc54)[C@H](O)[C@@H]3O)[C@@H](O)[C@H]2O)c2nc(N)[nH]c(=O)c21	kcal/mol	9.063
Nc1nc2c(ncn2[C@@H]2O[C@H](COP(=O)(O)OP(=O)(O)OC[C@H]3O[C@@H](n4cnc5c(=O)[nH]c(N)nc54)[C@H](O)[C@@H]3O)[C@@H](O)[C@H]2O)c(=O)[nH]1	kcal/mol	9.708
Cn1c[n+]([C@@H]2O[C@H](COP(=O)(O)OP(=O)([O-])OP(=O)(O)OC[C@H]3O[C@@H](n4cnc5c(=O)[nH]c(N)nc54)[C@H](O)[C@@H]3O)[C@@H](O)[C@H]2O)c2nc(N)[nH]c(=O)c21	kcal/mol	8.026
O=c1[nH]cnc2c1ncn2[C@@H]1O[C@H](COP(=O)(O)OP(=O)(O)O)[C@@H](O)[C@H]1O [IDP, Inosine diphosphate]	kcal/mol	10.04
CC(C)(COP(=O)(O)OP(=O)(O)OC[C@H]1O[C@@H](n2cnc3c(N)ncnc32)[C@H](O)[C@@H]1O)[C@@H](O)C(=O)NCCC(=O)NCCS	kcal/mol	5.951
Nc1ncnc2c1ncn2[C@@H]1O[C@H](COP(=O)(O)OP(=O)(O)OC[C@H]2O[C@@H](n3cnc4c(N)ncnc43)[C@H](O)[C@@H]2O)[C@@H](O)[C@H]1O	kcal/mol	4.192
Nc1nc2c(ncn2[C@@H]2O[C@H](COP(=O)(O)OP(=O)(O)O)[C@@H](O)[C@H]2O)c(=O)[nH]1 [GDP, Guanosine diphosphate]	kcal/mol	8.97

----------
∆Tm, nanoDSF (Dye-Free): recorded values
Molecular target: hNudt16E76Q (Homo sapiens, UniProt Q96DE0, E76Q)
Construct: 4xHis (four added histidines); made in house; host or cells: E. coli Rosetta 2 (DE3), pET16b
Test: Thermal stability of hNudt16E76Q with ligands, dye-free nanoDSF
Assay type: binding
Details: 5 µM hNudt16E76Q, 20 mM MgCl2, 0.5 mM ligand, relative to apo
Protocol: Protein thermal stability in the presence of various ligands was measured using two DSF methods: assays with SYPRO orange dye and dye-free assays. DSF assays with SYPRO orange dye were performed at specific ligand concentrations for each protein–ligand pair. This measurement was performed as described in Section 4.6.1, with a constant MgCl2 concentration of 20 mM and a concentration of the tested ligand maintained at 0.5 mM. […]

COMPOUND	∆Tm, nanoDSF (Dye-Free) / °C
Nc1nc2c(ncn2[C@@H]2O[C@H](COP(=O)(O)O)[C@@H](O)[C@H]2O)c(=O)[nH]1 [GMP, Guanosine monophosphate]	4.0
Nc1nc2c(ncn2[C@@H]2O[C@H](COP(=O)(O)OP(=O)(O)OP(=O)(O)OC[C@H]3O[C@@H](n4cnc5c(=O)[nH]c(N)nc54)[C@H](O)[C@@H]3O)[C@@H](O)[C@H]2O)c(=O)[nH]1	10.9
C[n+]1cn([C@@H]2O[C@H](COP(=O)([O-])OP(=O)(O)OC[C@H]3O[C@@H](n4cnc5c(=O)[nH]c(N)nc54)[C@H](O)[C@@H]3O)[C@@H](O)[C@H]2O)c2nc(N)[nH]c(=O)c21	15.2

----------
Biological target: hNudt16E76Q (Homo sapiens, UniProt Q96DE0, E76Q)
Construct: 4xHis (four added histidines); made in house; host or cells: E. coli Rosetta 2 (DE3), pET16b
Assay: Microscale thermophoresis (MST) binding, two independent binding sites model
Details: calculated as −RTlnKd from MST Kd2

COMPOUND	ASSAY TARGET	COMPARISON SIGN	ΔGdiss2 (for Kd2) [kcal/mol]
CC(C)(COP(=O)(O)OP(=O)(O)OC[C@H]1O[C@@H](n2cnc3c(N)ncnc32)[C@H](O)[C@@H]1O)[C@@H](O)C(=O)NCCC(=O)NCCS	hNudt16E76Q (Homo sapiens, UniProt Q96DE0, E76Q)	≤	2.481
C[n+]1cn([C@@H]2O[C@H](COP(=O)([O-])OP(=O)(O)OC[C@H]3O[C@@H](n4cnc5c(=O)[nH]c(N)nc54)[C@H](O)[C@@H]3O)[C@@H](O)[C@H]2O)c2nc(N)[nH]c(=O)c21	hNudt16E76Q (Homo sapiens, UniProt Q96DE0, E76Q)	=	6.154
Nc1nc2c(ncn2[C@@H]2O[C@H](COP(=O)(O)OP(=O)(O)O)[C@@H](O)[C@H]2O)c(=O)[nH]1 [GDP, Guanosine diphosphate]	hNudt16E76Q (Homo sapiens, UniProt Q96DE0, E76Q)	=	5.911
O=c1[nH]cnc2c1ncn2[C@@H]1O[C@H](COP(=O)(O)OP(=O)(O)O)[C@@H](O)[C@H]1O [IDP, Inosine diphosphate]	hNudt16E76Q (Homo sapiens, UniProt Q96DE0, E76Q)	=	8.078
Nc1nc2c(ncn2[C@@H]2O[C@H](COP(=O)(O)OP(=O)(O)OC[C@H]3O[C@@H](n4cnc5c(=O)[nH]c(N)nc54)[C@H](O)[C@@H]3O)[C@@H](O)[C@H]2O)c(=O)[nH]1	hNudt16E76Q (Homo sapiens, UniProt Q96DE0, E76Q)	=	7.89

----------
Hydrolysis Rate, v/µg (hydrolyzed substrate per minute per enzyme µg): recorded values
Target: hNudt16 (Homo sapiens)
Test: Enzymatic hydrolysis catalyzed by hNudt16, products quantified by HPLC
Type: biochemical
Design: 4xHis (four added histidines); made in house
Conditions: 20 µM substrate, 37 °C, pH 7.9, 6 mM MgCl2; nd = hydrolysis products not detected
PROPERTY: Hydrolysis Rate, v/µg (hydrolyzed substrate per minute per enzyme µg) (µM/min/µg)

COMPOUND	ASSAY RESULT
NC(=O)C1=CN([C@@H]2O[C@H](COP(=O)(O)OP(=O)(O)OC[C@H]3O[C@@H](n4cnc5c(N)ncnc54)[C@H](O)[C@@H]3O)[C@@H](O)[C@H]2O)C=CC1	0.78
CC(C)(COP(=O)(O)OP(=O)(O)OC[C@H]1O[C@@H](n2cnc3c(N)ncnc32)[C@H](O)[C@@H]1O)[C@@H](O)C(=O)NCCC(=O)NCCS	0.75
Nc1ncnc2c1ncn2[C@@H]1O[C@H](COP(=O)(O)OP(=O)(O)OC[C@H]2O[C@@H](n3cnc4c(N)ncnc43)[C@H](O)[C@@H]2O)[C@@H](O)[C@H]1O	1.70
NC(=O)c1ccc[n+]([C@@H]2O[C@H](COP(=O)([O-])OP(=O)(O)OC[C@H]3O[C@@H](n4cnc5c(N)ncnc54)[C@H](O)[C@@H]3O)[C@@H](O)[C@H]2O)c1 [NAD, Nicotinamide adenine dinucleotide]	0.14
C[n+]1cn([C@@H]2O[C@H](COP(=O)([O-])OP(=O)(O)OC[C@H]3O[C@@H](n4cnc5c(=O)[nH]c(N)nc54)[C@H](O)[C@@H]3O)[C@@H](O)[C@H]2O)c2nc(N)[nH]c(=O)c21	30.11
Nc1nc2c(ncn2[C@@H]2O[C@H](COP(=O)(O)OP(=O)(O)OC[C@H]3O[C@@H](n4cnc5c(=O)[nH]c(N)nc54)[C@H](O)[C@@H]3O)[C@@H](O)[C@H]2O)c(=O)[nH]1	227.27
